Known activity at 0.01 µM of a selection of compounds
Test system: iCell endothelial cells (human iPSC-derived ECs)
protocol_details: High-content imaging cytotoxicity in iCell endothelial cells, 24 h
Format: cell-based
test_parameters: Homo sapiens, Endothelial cell, iPSC-EC, 24 hr, 0.01 µM, 0.00 µM control = 100.00, read-out: endo.mito.24hr
Where a name gives a salt, the structure may show the parent alone.
Value expressed in %; do not type the unit.

Sample records with activity at 0.01 µM:
INSERT INTO measurements (compound, result_units, reported_measurement) VALUES
  ('COc1ccc(-c2cccc(Cl)c2)cc1Cl', '%', 88.6),
  ('O=S(=O)(O)Oc1ccc(-c2cccc(Cl)c2)cc1Cl [4-yl PCB 11 sulfate]', '%', 96.2),
  ('Oc1cc(Cl)c(-c2cc(Cl)ccc2Cl)cc1Cl', '%', 96.3);

Query block: Lab request: please report activity at 0.01 µM under test system iCell endothelial cells (human iPSC-derived ECs) for O=S(=O)(O)Oc1cc(Cl)ccc1-c1ccccc1 [2-yl PCB 3 sulfate]
Result block: 93.3

Query block: Lab request: please report activity at 0.01 µM under test system iCell endothelial cells (human iPSC-derived ECs) for Clc1ccc(Cl)c(-c2cc(Cl)ccc2Cl)c1
Result block: 99.8

Query block: Lab request: please report activity at 0.01 µM under test system iCell endothelial cells (human iPSC-derived ECs) for Oc1ccc(-c2cccc(Cl)c2)cc1Cl
Result block: 99.5

Query block: Lab request: please report activity at 0.01 µM under test system iCell endothelial cells (human iPSC-derived ECs) for Clc1ccc(-c2ccccc2)cc1
Result block: 101

* * *

System: iCell cardiomyocytes (human iPSC-derived cardiomyocytes)
protocol_details: Intracellular Ca2+ flux / beating parameters in iCell cardiomyocytes (FLIPR tetra), 90 min or 24 h
Format: cell-based
test_parameters: Homo sapiens, Cardiomyocyte, 24 h, 1.00 µM; 0.00 µM = 100.00; read-out: cm.spacing.cv.24hrs
Where a name gives a salt, the structure may show the parent alone.
Known activity at 1 µM of a selection of molecules
Value expressed in %; do not type the unit.

INSERT INTO results (molecule, study_target, result_units, reported_measurement) VALUES
  ('Oc1ccccc1-c1ccc(Cl)cc1', 'iCell cardiomyocytes (human iPSC-derived cardiomyocytes)', '%', 106),
  ('O=S(=O)(O)Oc1cc(Cl)ccc1-c1ccccc1 [2-yl PCB 3 sulfate]', 'iCell cardiomyocytes (human iPSC-derived cardiomyocytes)', '%', 0),
  ('O=C1C=CC(=O)C(c2ccc(Cl)cc2)=C1', 'iCell cardiomyocytes (human iPSC-derived cardiomyocytes)', '%', 98.4);

Query block: Please give the measured activity at 1 µM for this molecule: Oc1ccc(O)c(-c2ccc(Cl)cc2)c1
Result block: 89

* * *

Test system: HUVECs
protocol_details: Tube formation (tubulogenesis) assay in HUVECs, 18 h
Type: cell-based, human
test_parameters: Homo sapiens, HUVEC, 18 h, HUVECs, 0.01 µM, 0.00 µM = 100.00, read-out: huvec.mtl.18hr
Known activity at 0.01 µM of a selection of molecules
Value expressed in %; do not type the unit.

Sample records with activity at 0.01 µM:
INSERT INTO results (molecule, result_units, reported_measurement) VALUES
  ('Oc1ccccc1-c1ccc(Cl)cc1 [2''-OH PCB3]', '%', 96),
  ('Clc1ccc(Cl)c(-c2cc(Cl)ccc2Cl)c1 [PCB52]', '%', 105);

Query block: Lab request: please report activity at 0.01 µM under test system HUVECs for Oc1cc(Cl)c(-c2cc(Cl)ccc2Cl)cc1Cl [4-OH PCB52]
Result block: 112

Query block: Lab request: please report activity at 0.01 µM under test system HUVECs for Clc1ccc(-c2ccccc2)cc1 [PCB3]
Result block: 96.2

Query block: Lab request: please report activity at 0.01 µM under test system HUVECs for O=C1C=CC(=O)C(c2ccc(Cl)cc2)=C1 [4-Cl-BQ, 2-(4-Chlorophenyl)benzo-2,5-quinone]
Result block: 108

Query block: Lab request: please report activity at 0.01 µM under test system HUVECs for COc1ccc(-c2cccc(Cl)c2)cc1Cl [4-OMe PCB11]
Result block: 124

* * *

Tested on: iCell cardiomyocytes (human iPSC-derived cardiomyocytes)
protocol_details: High-content imaging of cytotoxicity and mitochondrial integrity in iPSC-CMs
Type: cell-based
test_parameters: Homo sapiens, Cardiomyocyte, 1.5 h, cardiomyocytes (cm), cam, 90 min; read-out: POD cm.cam.90min
Protocol: Details on cardiomyocyte cell culture are described in detail elsewhere ([Grimm et al. 2015b]; [Sirenko et al. 2013a]). […] Live cell counts for each cell suspension were determined by trypan blue staining and cells were further diluted to provide final cell densities of 2×10^5 viable cells/ml. […] Phenotypic responses were quantitatively assessed using concentration–response modeling as detailed elsewhere ([Sirenko et al. 2017]). […]
Structures can show the parent of a compound that is named as a salt.
measured_endpoint: minimal effective concentration (µM)
Value expressed in µM; do not type the unit.

INSERT INTO assay_data (compound, study_target, reported_measurement) VALUES
  ('O=C1C=CC(=O)C(c2ccc(Cl)cc2)=C1', 'iCell cardiomyocytes (human iPSC-derived cardiomyocytes)', 37.6);

Query block: Lab request: please report minimal effective concentration under test system iCell cardiomyocytes (human iPSC-derived cardiomyocytes) for COc1ccc(-c2cccc(Cl)c2)cc1Cl
Result block: 33.8

Query block: Lab request: please report minimal effective concentration under test system iCell cardiomyocytes (human iPSC-derived cardiomyocytes) for O=S(=O)(O)Oc1cc(-c2ccccc2)ccc1Cl [3-PCB 3 sulfate]
Result block: 100

Query block: Lab request: please report minimal effective concentration under test system iCell cardiomyocytes (human iPSC-derived cardiomyocytes) for Oc1ccc(-c2ccc(Cl)cc2)cc1
Result block: 12.4

Query block: Lab request: please report minimal effective concentration under test system iCell cardiomyocytes (human iPSC-derived cardiomyocytes) for Oc1ccccc1-c1ccc(Cl)cc1
Result block: 32.8

* * *

Tested on: iCell cardiomyocytes (human iPSC-derived cardiomyocytes)
protocol_details: Intracellular Ca2+ flux / beating parameters in iCell cardiomyocytes (FLIPR tetra), 90 min or 24 h
Format: cell-based
test_parameters: Homo sapiens, Cardiomyocyte, 1.5 h, 1.00 µM; 0.00 µM = 100.00; read-out: cm.bpm.90min
Counter-ions that a name gives are not always drawn.
measured_endpoint: activity at 1 µM (%)
Value expressed in %; do not type the unit.

Query block: Please give the measured activity at 1 µM for this compound: O=S(=O)(O)Oc1ccc(-c2ccc(Cl)cc2)cc1 [4'-yl PCB 3 sulfate]
Result block: 100

Query block: Please give the measured activity at 1 µM for this compound: Oc1ccccc1-c1ccc(Cl)cc1
Result block: 104

Query block: Please give the measured activity at 1 µM for this compound: Clc1cccc(-c2cccc(Cl)c2)c1
Result block: 95.3

Query block: Please give the measured activity at 1 µM for this compound: COc1ccc(-c2ccc(Cl)cc2)cc1
Result block: 96.5

Query block: Please give the measured activity at 1 µM for this compound: O=S(=O)(O)Oc1cc(-c2ccccc2)ccc1Cl [3-yl PCB 3 sulfate]
Result block: 99.1

* * *

Known activity at 10 µM of a selection of compounds
Tested on: iCell endothelial cells (human iPSC-derived ECs)
protocol_details: High-content imaging cytotoxicity in iCell endothelial cells, 24 h
Format: cell-based
test_parameters: Homo sapiens, Endothelial cell, iPSC-EC, 24 hr, 10.00 µM, 0.00 µM control = 100.00, read-out: endo.nma.24hr
Where a name gives a salt, the structure may show the parent alone.

Sample records with activity at 10 µM:
INSERT INTO results (compound, measured_endpoint, reported_measurement) VALUES
  ('O=S(=O)(O)Oc1cc(Cl)c(-c2cc(Cl)ccc2Cl)cc1Cl [4-yl PCB 52 sulfate]', 'activity at 10 µM', '99.1%'),
  ('Clc1cccc(-c2cccc(Cl)c2)c1', 'activity at 10 µM', '100%'),
  ('Clc1ccc(-c2ccccc2)cc1', 'activity at 10 µM', '94.8%'),
  ('Oc1ccc(-c2cccc(Cl)c2)cc1Cl', 'activity at 10 µM', '97.2%'),
  ('O=S(=O)(O)Oc1ccc(-c2cccc(Cl)c2)cc1Cl [4-yl PCB 11 sulfate]', 'activity at 10 µM', '98.8%'),
  ('Clc1ccc(Cl)c(-c2cc(Cl)ccc2Cl)c1', 'activity at 10 µM', '101%'),
  ('Oc1ccccc1-c1ccc(Cl)cc1', 'activity at 10 µM', '97%');

Query block: Lab request: please report activity at 10 µM under test system iCell endothelial cells (human iPSC-derived ECs) for Oc1cc(Cl)c(-c2cc(Cl)ccc2Cl)cc1Cl
Result block: 103%

* * *

Tested on: iCell endothelial cells (human iPSC-derived ECs)
protocol_details: Tube formation (tubulogenesis) assay in iCell endothelial cells, 18 h
Assay type: cell-based
test_parameters: Homo sapiens, Endothelial cell, iPSC-EC tube formation, 18 hr, 0.10 µM, 0.00 µM control = 100.00, read-out: endo.tta.18hr
Counter-ions that a name gives are not always drawn.
measured_endpoint: activity at 0.1 µM (%)
Value expressed in %; do not type the unit.

Sample records with activity at 0.1 µM:
INSERT INTO results (compound, result_units, reported_measurement) VALUES
  ('Oc1ccc(-c2ccc(Cl)cc2)cc1', '%', 89.9),
  ('O=S(=O)(O)Oc1cccc(-c2ccc(Cl)cc2)c1 [3''-yl PCB 3 sulfate]', '%', 93),
  ('Oc1ccc(O)c(-c2ccc(Cl)cc2)c1', '%', 104),
  ('Oc1cccc(-c2ccc(Cl)cc2)c1', '%', 73),
  ('Clc1ccc(Cl)c(-c2cc(Cl)ccc2Cl)c1', '%', 108);

Query block: Please give the measured activity at 0.1 µM for this compound: Clc1cccc(-c2cccc(Cl)c2)c1
Result block: 118

Query block: Please give the measured activity at 0.1 µM for this compound: Oc1ccc(-c2cccc(Cl)c2)cc1Cl
Result block: 131

Query block: Please give the measured activity at 0.1 µM for this compound: O=C1C=CC(=O)C(c2ccc(Cl)cc2)=C1
Result block: 135

Query block: Please give the measured activity at 0.1 µM for this compound: Oc1ccccc1-c1ccc(Cl)cc1
Result block: 103

Query block: Please give the measured activity at 0.1 µM for this compound: O=S(=O)(O)Oc1cc(-c2ccccc2)ccc1Cl [3-yl PCB 3 sulfate]
Result block: 93.5
